ASSAY NAME: Highest frequency of acute liver toxicity observed during clinical trials, expressed as a percentage. [column '% AIGUE' in source]
MEASUREMENT PARAMETERS: human
METRIC: Hepatotoxicity (acute) (%)

>>> meas_value("O=C1c2ccccc2C(=O)C1c1ccc(F)cc1 [FLUINDIONE]")
0
>>> meas_value("COc1ccc2c(c1)N(C[C@H](C)CN(C)C)c1ccccc1S2 [LEVOMEPROMAZINE]")
2.7
>>> meas_value("Cc1oncc1C(=O)Nc1ccc(C(F)(F)F)cc1 [LEFLUNOMIDE]")
10
>>> meas_value("CO/N=C(\\C(=O)N[C@@H]1C(=O)N2C(C(=O)O)=C(CSc3nc(C)c(CC(=O)O)s3)CS[C@H]12)c1csc(N)n1 [CEFODIZIME]")
0
>>> meas_value("CCCCN/C(=C1/C=C(Cl)C=CC1=O)c1ccccc1Cl")
0

====

MEASUREMENT PARAMETERS: human
METRIC: Hepatotoxicity (severe hepatitis)

>>> meas_value("Cc1cn([C@H]2C[C@H](N=[N+]=[N-])[C@@H](CO)O2)c(=O)[nH]c1=O")
13
>>> meas_value("CSc1ccc(C(=O)c2[nH]c(=O)[nH]c2C)cc1")
0
>>> meas_value("CN1CCN(c2c(F)cc3c(=O)c(C(=O)O)cn(CCF)c3c2F)CC1")
0
>>> meas_value("N=C(N)c1ccc(/C=C/c2ccc(C(=N)N)cc2O)cc1 [HYDROXYSTILBAMIDINE]")
0
>>> meas_value("NC(N)=Nc1nc(CSCCN/C=N/S(=O)(=O)c2ccc(Br)cc2)cs1")
1

====

ASSAY NAME: Highest frequency of acute liver toxicity observed during clinical trials, expressed as a percentage. [column '% AIGUE' in source]
MEASUREMENT PARAMETERS: human
METRIC: Hepatotoxicity (acute) (%)

>>> meas_value("O=C(O)C1=C(CSc2nnnn2CS(=O)(=O)O)CS[C@@H]2[C@H](NC(=O)[C@H](O)c3ccccc3)C(=O)N12")
5.9
>>> meas_value("O=C1CN=C(c2ccccc2)c2c(sc3c2CCCC3)N1")
0
>>> meas_value("CN(C)CCn1nnnc1SCC1=C(C(=O)O)N2C(=O)[C@@H](NC(=O)Cc3csc(N)n3)[C@H]2SC1")
0.8
>>> meas_value("CC(=O)S[C@@H]1CC2=CC(=O)CC[C@]2(C)[C@H]2CC[C@@]3(C)[C@@H](CC[C@@]34CCC(=O)O4)[C@H]12")
0
>>> meas_value("CC(C)c1nc(N(C)S(C)(=O)=O)nc(-c2ccc(F)cc2)c1/C=C/[C@@H](O)C[C@@H](O)CC(=O)O")
0.1
>>> meas_value("CS[C@H]1SC[C@H]2C(=O)N(C)[C@@H](C(C)C)C(=O)OC[C@@H](NC(=O)c3cnc4ccccc4n3)C(=O)N[C@@H](C)C(=O)N(C)[C@@H]1C(=O)N(C)[C@@H](C(C)C)C(=O)OC[C@@H](NC(=O)c1cnc3ccccc3n1)C(=O)N[C@@H](C)C(=O)N2C")
4.8
>>> meas_value("Cc1cccc(Nc2cc(Cl)nc(SCC(=O)NCCO)n2)c1C")
0
>>> meas_value("COc1ccc(C(CN(C)C)C2(O)CCCCC2)cc1 (centres undefined)")
0
>>> meas_value("O=C(Nc1ccc(Cl)cc1)NS(=O)(=O)c1ccc2c(c1)CCC2")
18.8
>>> meas_value("C[C@]12C/C(=C/O)C(=O)C[C@@H]1CC[C@@H]1[C@@H]2CC[C@@]2(C)[C@H]1CC[C@]2(C)O")
52.8
>>> meas_value("CC(C)NCC(O)COc1ccc(COCCOC(C)C)cc1 (centres undefined)")
0
>>> meas_value("Cn1c(=O)c2[nH]cnc2n(C)c1=O.O")
0
>>> meas_value("CC(C)=CCC1C(=O)N(c2ccccc2)N(c2ccccc2)C1=O")
0
>>> meas_value("Cc1nnc(NS(=O)(=O)c2ccc(N)cc2)s1")
0
>>> meas_value("Cc1cccc(C)c1OCC(=O)N[C@@H](Cc1ccccc1)[C@@H](O)C[C@H](Cc1ccccc1)NC(=O)[C@H](C(C)C)N1CCCNC1=O")
8
>>> meas_value("CNC(=O)c1c(I)c(C(=O)NCC(=O)Nc2c(I)c(C(=O)O)c(I)c(C(=O)NCCO)c2I)c(I)c(N(C)C(C)=O)c1I")
0
>>> meas_value("CC(C)/N=c1\\cc2n(-c3ccc(Cl)cc3)c3ccccc3nc-2cc1Nc1ccc(Cl)cc1")
5.6
>>> meas_value("CN(C)CCCN1c2ccccc2CCc2ccc(Cl)cc21")
0
>>> meas_value("CC(C)=CCN1CC[C@]2(C)c3cc(O)ccc3C[C@H]1[C@H]2C [(+)-PENTAZOCINE]")
0
>>> meas_value("CO[C@]12CC[C@@]3(C[C@@H]1[C@](C)(O)C(C)(C)C)[C@H]1Cc4ccc(O)c5c4[C@@]3(CCN1CC1CC1)[C@H]2O5")
0
>>> meas_value("COc1cc(C(=S)N2CCOCC2)cc(OC)c1OC")
0
>>> meas_value("O=C(COCC(=O)Nc1c(I)cc(I)c(C(=O)O)c1I)Nc1c(I)cc(I)c(C(=O)O)c1I")
0
>>> meas_value("Cc1cc(C(=O)NNCc2ccccc2)no1")
0
>>> meas_value("Fc1ccc(C(c2ccc(F)cc2)N2CCN(C/C=C/c3ccccc3)CC2)cc1")
0
>>> meas_value("CCc1nn(CCCN2CCN(c3cccc(Cl)c3)CC2)c(=O)n1CCOc1ccccc1")
0
>>> meas_value("Nc1nc(/C(=C/CC(=O)O)C(=O)N[C@@H]2C(=O)N3C(C(=O)O)=CCS[C@H]23)cs1")
0
>>> meas_value("NCCCNc1ccc2c3c(nn2CCNCCO)-c2c(O)ccc(O)c2C(=O)c13")
0
>>> meas_value("CN[C@H](CC(C)C)C(=O)N[C@H]1C(=O)N[C@@H](CC(N)=O)C(=O)N[C@H]2C(=O)N[C@H]3C(=O)N[C@H](C(=O)N[C@H](C(=O)O)c4cc(O)cc(O)c4-c4cc3ccc4O)[C@H](O)c3ccc(c(Cl)c3)Oc3cc2cc(c3O[C@@H]2O[C@H](CO)[C@@H](O)[C@H](O)[C@H]2O[C@H]2C[C@](C)(N)[C@H](O)[C@H](C)O2)Oc2ccc(cc2Cl)[C@H]1O")
0
>>> meas_value("NS(=O)(=O)c1cc2c(cc1Cl)NCNS2(=O)=O [HYDROCHLOROTHIAZIDE]")
0

====

MEASUREMENT PARAMETERS: human, serum
Classify as follows. Reported Hepatotoxicity (moderate) greater than or equal to 2: t. Reported Hepatotoxicity (moderate) below: f.

>>> cat("INTERFERON ALFA")
"t"
>>> cat("TINZAPARIN SODIUM")
"t"
>>> cat("ASPARAGINASE")
"t"
>>> cat("CISPLATIN")
"t"
>>> cat("EPOETIN ALFA")
"t"
>>> cat("INTERFERON BETA")
"t"
>>> cat("INSULIN HUMAN")
"t"
>>> cat("CAPROMAB PENDETIDE")
"f"
>>> cat("ANTIMONY (III) ION")
"f"
>>> cat("NARTOGRASTIM")
"f"
>>> cat("PALIVIZUMAB")
"f"
>>> cat("CHOLESTYRAMINE")
"t"
>>> cat("SERRAPEPTASE")
"f"
>>> cat("STIBOGLUCONATE")
"t"

====

MEASUREMENT PARAMETERS: human, serum
METRIC: Hepatotoxicity (moderate)

>>> meas_value("INFLIXIMAB")
3
>>> meas_value("GALLIUM")
1
>>> meas_value("COLESTIPOL")
1
>>> meas_value("INTERFERON GAMMA-1A")
50
>>> meas_value("SODIUM NITROPRUSSIDE")
1
>>> meas_value("ALTEPLASE")
4
>>> meas_value("POVIDONE-IODINE")
2
>>> meas_value("POLOXAMER")
1
>>> meas_value("FILGRASTIM")
7
>>> meas_value("DENILEUKIN DIFTITOX")
3
>>> meas_value("BLEOMYCIN")
1
>>> meas_value("CARBETIMER")
2
>>> meas_value("NEDAPLATIN")
1
>>> meas_value("BCG VACCINE")
7
>>> meas_value("ENOXAPARIN")
8
>>> meas_value("IVERMECTIN")
5
>>> meas_value("PEGLOTICASE")
1
>>> meas_value("INTERLEUKIN 1BETA")
1
>>> meas_value("INTERFERON ALFA-N1")
15

====

MEASUREMENT PARAMETERS: human, serum
Classify as follows. Reported Hepatotoxicity (moderate) greater than or equal to 4: y. Reported Hepatotoxicity (moderate) below: n.

>>> cat("CC1(C)S[C@@H]2[C@H](NC(=O)[C@H](C(=O)O)c3ccsc3)C(=O)N2[C@H]1C(=O)O.O=C(O)[C@H]1/C(=C/CO)O[C@@H]2CC(=O)N21")
"y"
>>> cat("CC(C)C[C@H](NC(=O)[C@@H](COC(C)(C)C)NC(=O)[C@H](Cc1ccc(O)cc1)NC(=O)[C@H](CO)NC(=O)[C@H](Cc1c[nH]c2ccccc12)NC(=O)[C@H](Cc1cnc[nH]1)NC(=O)[C@@H]1CCC(=O)N1)C(=O)N[C@@H](CCCNC(=N)N)C(=O)N1CCC[C@H]1C(=O)NNC(N)=O [GOSERELIN]")
"y"
>>> cat("CC[C@@]1(O)C[C@H](O[C@H]2C[C@H](N(C)C)[C@H](O[C@H]3C[C@H](O)[C@H](O[C@H]4CCC(=O)[C@H](C)O4)[C@H](C)O3)[C@H](C)O2)c2c(cc3c(c2O)C(=O)c2c(O)cccc2C3=O)[C@H]1C(=O)OC [ACLARUBICIN]")
"y"
>>> cat("NS(=O)(=O)Cc1noc2ccccc12 [ZONISAMIDE]")
"n"
>>> cat("CC1=C(/C=C/C(C)=C/C=C/C(C)=C\\C(=O)O)C(C)(C)CCC1 [ISOTRETINOIN]")
"y"
>>> cat("Nc1c(CC(=O)O)cccc1C(=O)c1ccc(Br)cc1 [BROMFENAC]")
"n"
